Tested on: Fibroblast
Protocol: Multiplex assay against human fibroblast
Type: toxicity, cell-based
Condition Parameters: 24 h, 1 µM, compound concentration 1 uM, replicate 1
Population Hoechst High Intensity Objects (%) values for the compounds below.
Your answer should be a plain number; it is taken to be in %.

Would you please look over these solved cases?
OCCCNc1cc(-c2ccnc(Nc3cccc(Cl)c3)n2)ccn1: 2
COCCCN1CCC(NC(=O)c2cc(Cl)c(N)c3c2OCC3)CC1 [PRUCALOPRIDE]: 2
O=c1ccc2ccc(OCCCCN3CCN(c4cccc5sccc45)CC3)cc2[nH]1: 1
CCCCC[C@H](O)/C=C/[C@H]1[C@H](O)CC(=O)[C@@H]1CCCCCCC(=O)O: 0

Attention now shifts to the item below.
Prompt: Give the reported Population Hoechst High Intensity Objects (%) for COc1cc(Nc2ncc3c(n2)-c2ccc(Cl)cc2C(c2c(F)cccc2OC)=NC3)ccc1C(=O)O (system: Fibroblast).
Response: 2

====

System: U2OS
Protocol: Multiplex assay against U2OS
Format: toxicity, cell-based
Condition Parameters: human, 48 h, 1 µM, compound concentration 1 uM, replicate 2
Simple rule here: Population Apoptotic (%) less than 80% is TRUE, otherwise FALSE.

Prompt: Is Population Apoptotic (%) strictly under 80% for the entry CSc1nc(NC2CCCC2)c([N+](=O)[O-])c(NC2CCCC2)n1 ?
Response: FALSE

Prompt: Is Population Apoptotic (%) strictly under 80% for the entry CN1CCN(c2ccc(Nc3c4ccccc4nc4ccccc34)cc2)CC1.Cl.Cl.O ?
Response: FALSE

Prompt: Is Population Apoptotic (%) strictly under 80% for the entry N[C@](CC1c2ccccc2Oc2ccccc21)(C(=O)O)[C@H]1C[C@@H]1C(=O)O ?
Response: FALSE

Prompt: Is Population Apoptotic (%) strictly under 80% for the entry CCCCCCNC(=O)Nc1ccc(S(=O)(=O)Nc2ccc(CCNC[C@H](O)COc3ccc(O)cc3)cc2)cc1 ?
Response: FALSE

Prompt: Is Population Apoptotic (%) strictly under 80% for the entry Cc1sc2c(c1C)C(c1ccc(Cl)cc1)=N[C@H](CC(=O)OC(C)(C)C)c1nnc(C)n1-2 ?
Response: FALSE

Prompt: Is Population Apoptotic (%) strictly under 80% for the entry Cc1nn(C)c2nc(NNC(=O)Nc3cc(Cl)nc(Cl)c3)cc(C(C)C)c12 ?
Response: FALSE

====

Population Tubulin-Different-Phenotype (%) values for the compounds below.
System: Fibroblast
Protocol: Multiplex assay against human fibroblast
Type: toxicity, cell-based
Condition Parameters: 48 h, 1 µM, compound concentration 1 uM, replicate 2
Number first, unit second: that is the form wanted.

COc1ccc2c(c1OCc1ccccc1)C[C@@H](C(=O)O)N(C(=O)C(c1ccccc1)c1ccccc1)C2 [OLODANRIGAN]: 40%
O=c1nc2[nH]c3ccccc3nc-2c(=O)[nH]1 [ALLOXAZINE]: 56%

Prompt: What value of measured Population Tubulin-Different-Phenotype (%) is listed for O=C(NCCNCC(O)COc1ccc(O)cc1)N1CCOCC1.O=C(NCCNCC(O)COc1ccc(O)cc1)N1CCOCC1.O=C(O)/C=C/C(=O)O (stereo not drawn) [XAMOTEROL FUMARATE] ?
Response: 65%

Prompt: What value of measured Population Tubulin-Different-Phenotype (%) is listed for Cc1nn(C)c2nc(NNC(=O)Nc3cc(Cl)nc(Cl)c3)cc(C(C)C)c12 ?
Response: 36%

Prompt: What value of measured Population Tubulin-Different-Phenotype (%) is listed for CN1CCN2c3ccccc3Cc3ccccc3C2C1.Cl (stereo not drawn) [MIANSERIN HYDROCHLORIDE] ?
Response: 50%

Prompt: What value of measured Population Tubulin-Different-Phenotype (%) is listed for Cc1cc(O)c(-c2ccc([C@@H](C)CN(C)C)cc2)c2c1[nH]c(=O)c1sccc12 ?
Response: 62%

Prompt: What value of measured Population Tubulin-Different-Phenotype (%) is listed for O=C(O)CCC/C=C\CC1C(O)CC(O)C1/C=C/C(O)COc1cccc(Cl)c1 (stereo not drawn) [CLOPROSTENOL] ?
Response: 63%

Prompt: What value of measured Population Tubulin-Different-Phenotype (%) is listed for CCn1c(-c2nc3cc(C(=O)N4CCCC(N)C4)ccc3n2C)cc2ccccc21.Cl (stereo not drawn) ?
Response: 49%

====

Tested on: HEK-293T
Protocol: Multiplex assay against HEK293T
Type: toxicity, cell-based
Condition Parameters: human, 48 h, 1 µM, compound concentration 1 uM, replicate 1
Recorded Metric: Population Mitochondria Different-Phenotype (%)
Your answer should be a plain number; it is taken to be in %.

Would you please look over these solved cases?
COc1cc2nc(N3CCN(C(=O)c4ccco4)CC3)nc(N)c2cc1OC.Cl [PRAZOSIN HYDROCHLORIDE]: 16
COc1ccc2[nH]c(I)c(CCNC(C)=O)c2c1: 19
O=C(Nc1cc(-c2ccccc2)nn1-c1ccccc1F)c1ccc([N+](=O)[O-])cc1: 14

Prompt: Give the reported Population Mitochondria Different-Phenotype (%) for Cc1ccc(OCC(O)C(C)NC(C)C)c2c1CCC2.Cl (centres undefined) (system: HEK-293T).
Response: 28

Prompt: Give the reported Population Mitochondria Different-Phenotype (%) for CN1CCN2c3ccccc3Cc3ccccc3C2C1.Cl (centres undefined) [MIANSERIN HYDROCHLORIDE] (system: HEK-293T).
Response: 15

Prompt: Give the reported Population Mitochondria Different-Phenotype (%) for C=CCN1C[C@H](C(=O)N(CCCN(C)C)C(=O)NCC)C[C@@H]2c3cccc4[nH]cc(c34)C[C@H]21 (system: HEK-293T).
Response: 21

Prompt: Give the reported Population Mitochondria Different-Phenotype (%) for Cc1cc(=O)n(C)c2cc(N3C(=O)CC[C@H](NS(=O)(=O)CC(C)C)[C@H]3c3ccc(Cl)cc3)ccc12 (system: HEK-293T).
Response: 17

Prompt: Give the reported Population Mitochondria Different-Phenotype (%) for CN1CCN(c2ccc(Nc3c4ccccc4nc4ccccc34)cc2)CC1.Cl.Cl.O (system: HEK-293T).
Response: 30

Prompt: Give the reported Population Mitochondria Different-Phenotype (%) for COCCn1c(C)c(C)s/c1=N\C(=O)C1C(C)(C)C1(C)C (system: HEK-293T).
Response: 22

====

Test system: HEK-293T
Protocol: Multiplex assay against HEK293T
Format: toxicity, cell-based
Condition Parameters: human, 12 h, 10 µM, compound concentration 10 uM, replicate 1
Total Cell Count values for the molecules below.
// response body must contain only the number

Cc1cc(-c2ccc3c(c2)CC[C@H]3N2CC3(CCN(C(=O)Cc4cn5cc(C)sc5n4)CC3)C2)ncn1: 455
CC(F)(F)CN1CCOc2c(nn(-c3ccccc3Cl)c2-c2ccc(Cl)cc2)C1=O: 384
CSc1nc(NC2CCCC2)c([N+](=O)[O-])c(NC2CCCC2)n1: 449
CN(C)C(=O)Cn1cc(-c2ccc(-c3nnc4ccccn34)cc2)cn1: 427
CN1CCN(c2ccc(Nc3c4ccccc4nc4ccccc34)cc2)CC1.Cl.Cl.O: 234
C=CCN1C[C@H](C(=O)N(CCCN(C)C)C(=O)NCC)C[C@@H]2c3cccc4[nH]cc(c34)C[C@H]21: 438
CN1CCN2c3ccccc3Cc3ccccc3C2C1.Cl (centres undefined) [MIANSERIN HYDROCHLORIDE]: 410
CC(C)(C)c1ccc(CSc2cnn(C(C)(C)C)c(=O)c2Cl)cc1: 359

Attention now shifts to the item below.
Prompt: Give the reported Total Cell Count for CCn1c(-c2nc3cc(C(=O)N4CCCC(N)C4)ccc3n2C)cc2ccccc21.Cl (centres undefined) (system: HEK-293T).
Response: 406

====

System: U2OS
Protocol: Multiplex assay against U2OS
Format: toxicity, cell-based
Condition Parameters: human, 48 h, 1 µM, compound concentration 1 uM, replicate 2
Recorded Metric: Population Tubulin-Different-Phenotype (%)
Your answer should be a plain number; it is taken to be in %.

Nc1nc(CC(=O)Nc2ccc(CCNC[C@H](O)c3ccccc3)cc2)cs1: 7

Prompt: Give the reported Population Tubulin-Different-Phenotype (%) for CN1CCN(c2ccc(Nc3c4ccccc4nc4ccccc34)cc2)CC1.Cl.Cl.O (system: U2OS).
Response: 9

Prompt: Give the reported Population Tubulin-Different-Phenotype (%) for COc1cc(OC2CCN(C(C)=O)CC2)ccc1C(=O)N1CCC(N2C(=O)OCc3ccccc32)CC1 (system: U2OS).
Response: 4

Prompt: Give the reported Population Tubulin-Different-Phenotype (%) for OCCCNc1cc(-c2ccnc(Nc3cccc(Cl)c3)n2)ccn1 (system: U2OS).
Response: 10

Prompt: Give the reported Population Tubulin-Different-Phenotype (%) for Nc1nc(-c2ccco2)c2cnn(Cc3ccccc3F)c2n1 (system: U2OS).
Response: 1

====

Population Tubulin-Different-Phenotype (%) values for the molecules below.
System: Fibroblast
Protocol: Multiplex assay against human fibroblast
Format: toxicity, cell-based
Condition Parameters: 12 h, 1 µM, compound concentration 1 uM, replicate 1
Non-standard residues stand in square brackets, D forms with d. Residues, ends and D or L forms follow the SMILES beside them.
Your answer should be a plain number; it is taken to be in %.

Prompt: What value of measured Population Tubulin-Different-Phenotype (%) is listed for C[C@H](NC(=O)CNC(=O)c1cccc(Cl)c1)c1ccccc1 ?
Response: 17

Prompt: What value of measured Population Tubulin-Different-Phenotype (%) is listed for CCc1nn2c(C)cc(C)nc2c1Cc1ccc(-c2nnc(C3CCNCC3)o2)cc1 ?
Response: 35

Prompt: What value of measured Population Tubulin-Different-Phenotype (%) is listed for OCCCNc1cc(-c2ccnc(Nc3cccc(Cl)c3)n2)ccn1 ?
Response: 52

Prompt: What value of measured Population Tubulin-Different-Phenotype (%) is listed for CC(C)C[C@@H]1NC(=O)[C@@H](C(C)C)NC(=O)[C@@H]2CCCN2C(=O)[C@@H](CC(=O)O)NC(=O)[C@@H](Cc2c[nH]c3ccccc23)NC1=O [BQ-123] (cyclo(L[dW][dD]P[dV])) ?
Response: 31
